assay: Chemical screen, difference in ATP viability between normal and tumor cells
Format: cell-based
assay_conditions: human, four days, duplicate, read-out: difference in viability between the hTERT-HMEC and PE1007070 cells (selectivity)
Method: The hTERT-HMEC and PE1007070 cells were seeded in white 96-well plates (Costar) in 100 μL of modified M87 media at varying densities to achieve 80% to 90% confluency at the end of the assay. […] After four days of treatment, viability was determined utilizing the ATPlite 1step assay system (Perkin Elmer) according to the manufacturer's instructions. Luminescence measurements were acquired utilizing a Perkin Elmer 2104 EnVision plate reader. […]
measured_quantity: viability difference, normal minus tumor cells (selectivity) at 4 days, 20 µM (%)
# output: bare number, implied unit %

// viability difference, normal minus tumor cells (selectivity) at 4 days, 20 µM lookup, compound = COc1cc(OC)cc(C(C)c2ccc(NC(=O)OC(C)(C)C)cc2)c1 (stereo not shown) , result: 62

====

EC50 listing for selected compounds.
Test system: MDA-MB-231 cells
assay: Dose response assay, ATPlite viability, four days
Type: cell-based, human
assay_conditions: Homo sapiens, 96 h; MDA-MB-231, four days of treatment, ATP viability
Procedure: Cells were seeded in white 96-well plates (Costar, Tewksbury, MA, USA) in 100 μL of their respective media at varying densities to achieve 80% to 90% confluency after five days in culture. […] After four days of treatment, viability was determined utilizing the ATPlite 1step assay system (Perkin Elmer, Waltham, MA, USA) according to the manufacturer's instructions. Luminescence measurements were acquired utilizing a Perkin Elmer 2104 EnVision plate reader. […]
Where a name gives a salt, the structure may show the parent alone.
# output: bare number, implied unit nM

Some solved entries appear below for comparison.
[[record]]
compound = "COc1cc(OC)cc(C(C)c2ccc(NC(=O)OC(C)(C)C)cc2)c1 (stereo not drawn)"
quantitative_result = 10500

[[record]]
compound = "Cc1[nH]c2ccccc2c1CCNCc1ccc(/C=C/C(=O)NO)cc1"
quantitative_result = 23.1

[[record]]
compound = "CC(C)C[C@H](NC(=O)[C@H](Cc1ccccc1)NC(=O)c1cnccn1)B(O)O"
quantitative_result = 35

[[record]]
compound = "CC(=O)O[C@H]1C(=O)[C@@]2(C)[C@H]([C@H](OC(=O)c3ccccc3)[C@]3(O)C[C@H](OC(=O)[C@H](O)[C@@H](NC(=O)c4ccccc4)c4ccccc4)C(C)=C1C3(C)C)[C@]1(OC(C)=O)CO[C@@H]1C[C@@H]2O"
quantitative_result = 2.52

[[record]]
compound = "COc1cccc2c1C(=O)c1c(O)c3c(c(O)c1C2=O)C[C@@](O)(C(=O)CO)C[C@@H]3O[C@H]1C[C@H](N)[C@H](O)[C@H](C)O1 [Doxorubicin, doxorubicin hydrochloride]"
quantitative_result = 110


Now, please, on to the next compound.
// EC50 lookup, compound = Nc1ccn([C@@H]2O[C@H](CO)[C@@H](O)C2(F)F)c(=O)n1 [Gemcitabine, gemcitabine hydrochloride] , result: 9.63

// provenance: paper PMC4028696
